The origin of these recorded values is patent US20120277257A1.

test: Phase I clinical trial, human plasma pharmacokinetics of oral Compound 1; format: in vivo; settings: human, plasma, po, 340 mg/m^2, Day 01, Cohort 5 (BID), 340 mg/m^2 (270-370 mg), oral twice daily; based on a single 12-hour dosing interval

# record smiles, unit abbrev, AUC(0-inf)
measured = [
    ("C[C@H](O)C(=O)N1CCC(CCn2c(Sc3cc4c(cc3Br)OCO4)nc3c(N)ncnc32)CC1", "µg·h/mL", 107),
]

---

Assay: Oral pharmacokinetics in female Sprague Dawley rats, single dose versus two doses
Assay type: in vivo
Conditions: female, Sprague Dawley, rat, plasma; 25 mg/kg oral, two doses 12 h apart; read-out: AUC(0-24)
Protocol: Female Sprague Dawley rats (n=4 or 5) were dosed orally once with 50 mg/kg (See FIG. 9A) or twice with 25 mg/kg (See FIG. 9B) of Compound 1. Pharmacokinetic parameters are outlined in Table 4 below. […] Effective plasma concentrations of Compound 1 were maintained with twice a day dosing.

# record smiles, AUC(0-t)
rows = [
    ("C[C@H](O)C(=O)N1CCC(CCn2c(Sc3cc4c(cc3Br)OCO4)nc3c(N)ncnc32)CC1", "5120 ng·h/mL"),
]

---

experiment: Phase I clinical trial, human plasma pharmacokinetics of oral Compound 1; format: in vivo; conditions: human, plasma, po, 165 mg/m^2, Day 21, Cohort 3, 165 mg/m^2 (300 mg), oral daily; read-out: Vz/F

# molecule, Vd/F [L]
data = [
    ("C[C@H](O)C(=O)N1CCC(CCn2c(Sc3cc4c(cc3Br)OCO4)nc3c(N)ncnc32)CC1 [Compound 1]", 30.4),
]

---

assay: Oral pharmacokinetics in female Sprague Dawley rats, single dose versus two doses; assay type: in vivo; details: female, Sprague Dawley, rat, plasma; 25 mg/kg oral, two doses 12 h apart

# record smiles, Cmax (ng/mL)
records = [
    ("C[C@H](O)C(=O)N1CCC(CCn2c(Sc3cc4c(cc3Br)OCO4)nc3c(N)ncnc32)CC1", 1110),
]

---

Test: Phase I clinical trial, human plasma pharmacokinetics of oral Compound 1
Type: in vivo
Conditions: human, plasma, po, 165 mg/m^2, Day 21, Cohort 3, 165 mg/m^2 (300 mg), oral daily
Experimental: A human clinical study was initiated at a starting dose of 50 mg/m^2. Subjects had recurrent cancer refractory to available systemic therapy. Compound 1 was administered daily by mouth in tablet form for 21 consecutive days in a 28 day cycle to each enrolled subject. […] Plasma was collected pre-dose only for cycle 1 day 8. […]

# record smiles, AUC(0-inf), µg·h/mL
data = [
    ("C[C@H](O)C(=O)N1CCC(CCn2c(Sc3cc4c(cc3Br)OCO4)nc3c(N)ncnc32)CC1", 308),
]

---

Experiment: Phase I clinical trial, human plasma pharmacokinetics of oral Compound 1
Assay type: in vivo
Details: human, plasma, po, 245 mg/m^2, Day 01, Cohort 4, N = 6, 245 mg/m^2 (340-540 mg), oral daily
Procedure: A human clinical study was initiated at a starting dose of 50 mg/m^2. Subjects had recurrent cancer refractory to available systemic therapy. Compound 1 was administered daily by mouth in tablet form for 21 consecutive days in a 28 day cycle to each enrolled subject. […] Plasma was collected pre-dose only for cycle 1 day 8. […]
reported metric: half-life (h)

# record smiles, reported metric, quantitative readout
rows = [
    ("C[C@H](O)C(=O)N1CCC(CCn2c(Sc3cc4c(cc3Br)OCO4)nc3c(N)ncnc32)CC1", "half-life", 10.8),
]

---

experiment: Phase I clinical trial, human plasma pharmacokinetics of oral Compound 1; type: in vivo; details: human, plasma, po, 340 mg/m^2, Day 01, Cohort 5, N = 2, 340 mg/m^2 (480-620 mg), oral daily

# record smiles, Cmax
rows = [
    ("C[C@H](O)C(=O)N1CCC(CCn2c(Sc3cc4c(cc3Br)OCO4)nc3c(N)ncnc32)CC1", "16300 ng/mL"),
]

---

experiment: Phase I clinical trial, human plasma pharmacokinetics of oral Compound 1; type: in vivo; details: human, plasma, po, 340 mg/m^2, Day 01, Cohort 5, 340 mg/m^2 (480-620 mg), oral daily; read-out: AUC(0-24)

# record smiles, AUC(0-t) (µg·h/mL)
rows = [
    ("C[C@H](O)C(=O)N1CCC(CCn2c(Sc3cc4c(cc3Br)OCO4)nc3c(N)ncnc32)CC1", 233),
]

---

experiment: Phase I clinical trial, human plasma pharmacokinetics of oral Compound 1; assay type: in vivo; conditions: human, plasma, po, 50 mg/m^2, Day 01, Cohort 1, 50 mg/m^2 (100 mg), oral daily; read-out: AUC(0-24)

# record smiles, unit abbrev, AUC(0-t)
records = [
    ("C[C@H](O)C(=O)N1CCC(CCn2c(Sc3cc4c(cc3Br)OCO4)nc3c(N)ncnc32)CC1", "ng·h/mL", 20600),
]

---

assay: Oral pharmacokinetics in female Sprague Dawley rats, single dose versus two doses; assay type: in vivo; details: female, Sprague Dawley, rat, plasma; 50 mg/kg oral, single dose; read-out: AUC(0-24)
reported metric: AUC(0-t) (ng·h/mL)

# record smiles, reported metric, quantitative readout
records = [
    ("C[C@H](O)C(=O)N1CCC(CCn2c(Sc3cc4c(cc3Br)OCO4)nc3c(N)ncnc32)CC1", "AUC(0-t)", 5840),
]

---

experiment: Phase I clinical trial, human plasma pharmacokinetics of oral Compound 1; type: in vivo; conditions: human, plasma, po, 50 mg/m^2, Day 01, Cohort 1, Subject 101, 50 mg/m^2 (100 mg), oral daily

# record smiles, half-life / h
measured = [
    ("C[C@H](O)C(=O)N1CCC(CCn2c(Sc3cc4c(cc3Br)OCO4)nc3c(N)ncnc32)CC1", 8.5),
]

---

assay: Phase I clinical trial, human plasma pharmacokinetics of oral Compound 1; format: in vivo; details: both sexes, human, plasma, po, 340 mg/m^2, Day 01, Cohort 5 (BID), N = 6, 340 mg/m^2 (270-370 mg), oral twice daily
reported metric: half-life (h)

# record smiles, quantitative readout
rows = [
    ("C[C@H](O)C(=O)N1CCC(CCn2c(Sc3cc4c(cc3Br)OCO4)nc3c(N)ncnc32)CC1", 7.5),
]

---

assay: Phase I clinical trial, human plasma pharmacokinetics of oral Compound 1; format: in vivo; details: both sexes, human, plasma, po, Day 21, Cohort 4, N = 6, 176-245 mg/m^2 (340-540 mg), oral daily

# record smiles, unit abbrev, Cmax
rows = [
    ("C[C@H](O)C(=O)N1CCC(CCn2c(Sc3cc4c(cc3Br)OCO4)nc3c(N)ncnc32)CC1", "ng/mL", 9270),
]

---

experiment: Phase I clinical trial, human plasma pharmacokinetics of oral Compound 1; assay type: in vivo; settings: human, plasma, po, 50 mg/m^2, Day 19, Cohort 1, 50 mg/m^2 (100 mg), oral daily; read-out: Vz/F

# record smiles, Vd/F, L
data = [
    ("C[C@H](O)C(=O)N1CCC(CCn2c(Sc3cc4c(cc3Br)OCO4)nc3c(N)ncnc32)CC1", 88),
]

---

assay: Phase I clinical trial, human plasma pharmacokinetics of oral Compound 1; type: in vivo; conditions: human, plasma, po, 340 mg/m^2, Day 01, Cohort 5, 340 mg/m^2 (480-620 mg), oral daily; read-out: Vz/F

# record smiles, Vd/F
rows = [
    ("C[C@H](O)C(=O)N1CCC(CCn2c(Sc3cc4c(cc3Br)OCO4)nc3c(N)ncnc32)CC1", "51.4 L"),
]

---

assay: Phase I clinical trial, human plasma pharmacokinetics of oral Compound 1; type: in vivo; details: human, plasma, po, 340 mg/m^2, Day 01, Cohort 5, 340 mg/m^2 (480-620 mg), oral daily

# molecule, unit abbrev, AUC(0-inf)
records = [
    ("C[C@H](O)C(=O)N1CCC(CCn2c(Sc3cc4c(cc3Br)OCO4)nc3c(N)ncnc32)CC1 [Compound 1]", "µg·h/mL", 334),
]

---

assay: Phase I clinical trial, human plasma pharmacokinetics of oral Compound 1; format: in vivo; details: human, plasma, po, 240 mg, Day 01, Cohort 6 (BID), 240 mg, oral twice daily; read-out: AUC(0-12)

# record smiles, AUC(0-t)
rows = [
    ("C[C@H](O)C(=O)N1CCC(CCn2c(Sc3cc4c(cc3Br)OCO4)nc3c(N)ncnc32)CC1", "38200 ng·h/mL"),
]

---

experiment: Phase I clinical trial, human plasma pharmacokinetics of oral Compound 1; format: in vivo; conditions: human, plasma, po, 240 mg, Day 01, Cohort 6 (BID), 240 mg, oral twice daily; read-out: Vz/F

# record smiles, unit abbrev, Vd/F
rows = [
    ("C[C@H](O)C(=O)N1CCC(CCn2c(Sc3cc4c(cc3Br)OCO4)nc3c(N)ncnc32)CC1", "L", 39.6),
]
